System: primary cortico-hippocampal neuron cultures
Details: Tg2576, mouse
Counter-ions that a name gives are not always drawn.
readout: LDH (% of ctl)

Noted for CC[C@H]1[C@@H]2C[C@H]3[C@@H]4N(C)c5ccccc5[C@]45C[C@@H]([C@H]2[C@H]5O)N3[C@@H]1O [Ajmaline] : its LDH (% of ctl) reads 97.6 % of ctl

Noted for N=C(N)NCCN1CCCCCCC1 [Guanethidine Sulfate] : its LDH (% of ctl) reads 1057.3 % of ctl

Noted for CC(Cc1ccc(O)cc1)NCC(O)c1cc(O)cc(O)c1 (stereo not shown) [Fenoterol Hydrobromide] : its LDH (% of ctl) reads 104.3 % of ctl

Noted for Cl.NCCc1ccc(O)c(O)c1 [Dopamine Hydrochloride] : its LDH (% of ctl) reads 559.5 % of ctl
